Cited source for all entries: patent US20240199546A1

# tested system: human SLC6A19 and TMEM27 (Homo sapiens)
# Construct: expressed in transfected cells
# Sequence (Q695T7 whole entry): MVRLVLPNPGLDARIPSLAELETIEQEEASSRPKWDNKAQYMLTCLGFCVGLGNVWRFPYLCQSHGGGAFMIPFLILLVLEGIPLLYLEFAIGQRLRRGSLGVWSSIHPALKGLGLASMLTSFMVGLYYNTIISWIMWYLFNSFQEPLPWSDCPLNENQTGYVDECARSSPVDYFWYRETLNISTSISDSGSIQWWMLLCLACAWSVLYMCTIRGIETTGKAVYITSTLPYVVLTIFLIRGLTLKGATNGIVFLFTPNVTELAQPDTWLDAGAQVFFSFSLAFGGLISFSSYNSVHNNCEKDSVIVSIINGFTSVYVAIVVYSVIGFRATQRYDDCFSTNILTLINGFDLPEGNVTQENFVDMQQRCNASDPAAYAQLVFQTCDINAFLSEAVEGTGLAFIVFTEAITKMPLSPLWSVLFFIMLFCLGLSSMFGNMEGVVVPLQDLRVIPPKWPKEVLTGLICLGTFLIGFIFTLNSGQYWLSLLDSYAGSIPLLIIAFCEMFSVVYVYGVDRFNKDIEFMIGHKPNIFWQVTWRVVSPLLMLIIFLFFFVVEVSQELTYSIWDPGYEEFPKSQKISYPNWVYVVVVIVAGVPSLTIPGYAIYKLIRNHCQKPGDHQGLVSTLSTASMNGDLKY
# Sequence (Q9HBJ8 15-222 partner): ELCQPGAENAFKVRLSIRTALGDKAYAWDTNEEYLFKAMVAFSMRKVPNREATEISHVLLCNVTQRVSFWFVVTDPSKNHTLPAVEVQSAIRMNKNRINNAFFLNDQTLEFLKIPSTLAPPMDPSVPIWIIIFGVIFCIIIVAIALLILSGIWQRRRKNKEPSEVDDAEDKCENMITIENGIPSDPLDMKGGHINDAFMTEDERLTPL
# test: Radiolabelled (3H) leucine uptake in CHO cells with doxycycline-inducible expression of human SLC6A19 and TMEM27 (Example B-1)
# Assay type: cell-based
# cond: CHO cells with doxycycline-inducible expression of human SLC6A19 and TMEM27, read-out: SLC6A19_Radioligand Uptake Assay IC50
// bucketize IC50: I: < 0.3 µM; II: ≥ 0.3 µM and < 1 µM; III: ≥ 1 µM

[
  {
    "compound": "O=C(NCc1cc2cc(F)c(OCc3cscn3)cc2[nH]1)C1CCC1 [Compound 430]",
    "tested system": "human SLC6A19 and TMEM27 (Homo sapiens)",
    "assigned category": "I"
  },
  {
    "compound": "COCC(=O)NCc1cc2cc(F)c(OCc3cc(C)no3)cc2[nH]1 [Compound 263]",
    "tested system": "human SLC6A19 and TMEM27 (Homo sapiens)",
    "assigned category": "I"
  },
  {
    "compound": "O=C(NCc1cc2cc(F)c(OCc3ccon3)cc2[nH]1)N1CCC1 [Compound 89]",
    "tested system": "human SLC6A19 and TMEM27 (Homo sapiens)",
    "assigned category": "II"
  },
  {
    "compound": "CO[C@H]1C[C@H](Oc2cc3[nH]c(CNC(C)=O)cc3cc2Cl)C1 [Compound 462]",
    "tested system": "human SLC6A19 and TMEM27 (Homo sapiens)",
    "assigned category": "III"
  },
  {
    "compound": "CC1(C(=O)NCc2cc3cc(CCC#N)c(OCc4cscn4)cc3[nH]2)CC1 [Compound 641]",
    "tested system": "human SLC6A19 and TMEM27 (Homo sapiens)",
    "assigned category": "III"
  },
  {
    "compound": "CC1(C(=O)NCc2cc3cc(Cl)c(OCc4ccsc4Cl)cc3[nH]2)CC1 [Compound 321]",
    "tested system": "human SLC6A19 and TMEM27 (Homo sapiens)",
    "assigned category": "II"
  },
  {
    "compound": "Cc1cc(COc2cc3[nH]c(CNC(=O)[C@H]4C[C@@H](O)C4)cc3cc2Cl)on1 [Compound 253]",
    "tested system": "human SLC6A19 and TMEM27 (Homo sapiens)",
    "assigned category": "II"
  },
  {
    "compound": "Cc1cc(CNc2cc3[nH]c(CNC(=O)N4CCCC4)cc3cc2Cl)no1 [Compound 469]",
    "tested system": "human SLC6A19 and TMEM27 (Homo sapiens)",
    "assigned category": "II"
  },
  {
    "compound": "CC1CCN(C(=O)NCc2cc3ccc(OCc4ccon4)cc3[nH]2)C1 (stereo not drawn) [Compound 121]",
    "tested system": "human SLC6A19 and TMEM27 (Homo sapiens)",
    "assigned category": "I"
  },
  {
    "compound": "Cc1cc(COc2cc3[nH]c(CNC(=O)CC4(C)COC4)cc3cc2Cl)on1 [Compound 288]",
    "tested system": "human SLC6A19 and TMEM27 (Homo sapiens)",
    "assigned category": "III"
  },
  {
    "compound": "CC(C)C(=O)NCc1cc2cc(F)c(OCc3cscn3)cc2[nH]1 [Compound 135]",
    "tested system": "human SLC6A19 and TMEM27 (Homo sapiens)",
    "assigned category": "I"
  },
  {
    "compound": "CC1(C(=O)NCc2cc3cc(Cl)c(OCc4csc(Cl)c4)cc3[nH]2)CC1 [Compound 324]",
    "tested system": "human SLC6A19 and TMEM27 (Homo sapiens)",
    "assigned category": "III"
  },
  {
    "compound": "CC(F)(F)C(=O)NCc1cc2cc(Cl)c(OCc3cscn3)cc2[nH]1 [Compound 435]",
    "tested system": "human SLC6A19 and TMEM27 (Homo sapiens)",
    "assigned category": "I"
  },
  {
    "compound": "CC1(C(=O)NCc2cc3cc(Cl)c(CCn4ccnn4)cc3[nH]2)CC1 [Compound 583]",
    "tested system": "human SLC6A19 and TMEM27 (Homo sapiens)",
    "assigned category": "III"
  },
  {
    "compound": "O=C(NCc1cc2cc(OC(F)(F)F)c(CCc3cscn3)cc2[nH]1)N1CCC1 [Compound 596]",
    "tested system": "human SLC6A19 and TMEM27 (Homo sapiens)",
    "assigned category": "II"
  },
  {
    "compound": "O=C(NCc1cc2cc(F)c(CCc3ccon3)cc2[nH]1)N1CCC1 [Compound 602]",
    "tested system": "human SLC6A19 and TMEM27 (Homo sapiens)",
    "assigned category": "II"
  },
  {
    "compound": "Cc1cc(COc2cc3[nH]c(CNC(=O)C4(C)CC4)cc3cc2C(F)(F)F)no1 [Compound 58]",
    "tested system": "human SLC6A19 and TMEM27 (Homo sapiens)",
    "assigned category": "I"
  },
  {
    "compound": "COc1cc2cc(CNC(=O)C3(C)CC3)[nH]c2cc1CCn1ccnn1 [Compound 588]",
    "tested system": "human SLC6A19 and TMEM27 (Homo sapiens)",
    "assigned category": "III"
  }
]
